# ASSAYED_TARGET: Adenosine receptor A2a (Homo sapiens) (UniProt P29274)
# Sequence (P29274 whole entry): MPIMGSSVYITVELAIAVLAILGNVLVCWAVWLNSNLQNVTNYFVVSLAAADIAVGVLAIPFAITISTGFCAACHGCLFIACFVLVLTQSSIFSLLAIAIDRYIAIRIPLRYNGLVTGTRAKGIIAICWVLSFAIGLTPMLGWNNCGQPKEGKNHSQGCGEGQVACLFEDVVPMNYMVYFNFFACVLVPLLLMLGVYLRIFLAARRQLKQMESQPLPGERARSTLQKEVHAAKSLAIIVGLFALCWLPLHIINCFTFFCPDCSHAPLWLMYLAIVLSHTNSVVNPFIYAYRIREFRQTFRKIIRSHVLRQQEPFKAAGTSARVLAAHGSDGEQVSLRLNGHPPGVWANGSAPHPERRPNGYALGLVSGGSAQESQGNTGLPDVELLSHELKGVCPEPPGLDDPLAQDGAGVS
# MEASUREMENT_DESCRIPTION: Displacement of [3H]ZM241385 from human adenosine A2A receptor expressed in CHO cell membranes at 1 uM incubated for 60 mins by scintillation counting method
PARAMETER: inhibition (%)

given_smiles=CCOc1nc(C)nc2sc(-c3ccccc3)nc12 assayed_target="Adenosine receptor A2a (Homo sapiens) (UniProt P29274)" parameter=inhibition recorded_measurement=1

(P) Cc1cccc(Nc2nc3c(=O)[nH]c(C)nc3s2)c1
(Q) Cc1nc2sc(Nc3cccc(Cl)c3)nc2c(=O)[nH]1
(R) Cc1nc2sc(-c3cccs3)nc2c(=O)[nH]1
(S) CCOc1nc(C)nc2sc(Nc3ccccc3)nc12
(T) Cc1nc2sc(-c3ccc(C(F)(F)F)cc3)nc2c(=O)[nH]1
**Query** Ascending by inhibition, please. Provide the ranking by listing each label in its place in the requested order.
**Result** R, S, P, Q, T

(a) Cc1nc2sc(-c3cccc(F)c3)nc2c(=O)[nH]1
(b) Cc1nc2sc(-c3cccc(C(F)(F)F)c3)nc2c(=O)[nH]1
**Query** Please indicate which item has the smaller measured inhibition: a versus b Refer to your chosen entry by its label in the reply.
**Result** a
(a: 1%, b: 15%)
